- System: NCI-H522
- testDetails: NCI tumour cell line growth inhibition, 48 h
Active and inactive are the calls of the source. Rule as the data show it: active = GI50 up to about 1.1 µM and inactive = higher.
Write down one outcome, taken from active, inactive

Previously resolved entries follow.
{"compound": "CCOC(=O)/C(C#N)=C/c1ccnc2ccccc12", "group": "inactive"}
{"compound": "COc1cc(/C=N/n2c(-c3ccccc3)nn(C(C)=O)c2=O)cc(OC)c1OC", "group": "active"}

What classification did COc1cc2c(cc1OC)C(Cl)C(c1cc(OC)c(OC)c(OC)c1)=C2Cl (stereo not drawn) end up with in this test?
inactive

What classification did COC(=O)c1cc(-c2c[nH]cc2C(=O)OCc2ccccc2)cn1S(=O)(=O)c1ccc(C)cc1 end up with in this test?
inactive

What classification did N#Cc1c(N)nc2[nH]nc(N)c2c1-c1ccccc1 end up with in this test?
inactive

What classification did CC(C)(CN1CCCCC1)C(=O)/C=C/c1ccc(Br)cc1 end up with in this test?
inactive

What classification did CC(=O)Nc1ccc2cc3c(nc2n1)c1cccnc1n3S(=O)(=O)c1ccccc1 end up with in this test?
inactive

What classification did Cc1c(/N=C\c2ccc(N(CCC#N)CCC#N)cc2)c(=O)n(-c2ccccc2)n1C end up with in this test?
inactive

----------
- Tested on: 786-0
- testDetails: NCI tumour cell line growth inhibition, 48 h
Activity calls are given as the source filed them. No stated cut-off is given here; in the data, active = GI50 up to about 1.1 µM and inactive = higher. Residues, ends and D or L forms follow the SMILES beside them. Groups on a side chain read outwards from the residue. *: point of attachment. Cbz = O=C(OCc1ccccc1)*; Boc = CC(C)(C)OC(=O)*
measuredProperty: GI50

Given CCCCCCCC(=O)OC[n+]1ccc(-c2c(COC(=O)NC(C)C)c(COC(=O)NC(C)C)c3n2CCC3)cc1 , respond with its GI50.
27 µM (inactive)

Given NS(=O)(=O)c1ccc(N=C2C(=O)Nc3ccccc32)cc1 , respond with its GI50.
> 100 µM (inactive)

Given OCCCN=C1CCCCC1 , respond with its GI50.
> 100 µM (inactive)

Given CC(C)CC(NC(=O)OCc1ccccc1)C(=O)NCCCCC(NC(=O)C(CCCCNC(=O)C(CC(C)C)NC(=O)OCc1ccccc1)NC(=O)C(CCCCNC(=O)C(CC(C)C)NC(=O)OCc1ccccc1)NC(=O)C(CCCCNC(=O)C(CC(C)C)NC(=O)OCc1ccccc1)NC(=O)OC(C)(C)C)C(=O)O (stereo unspecified) (Boc-K([Leu-Cbz])K([Leu-Cbz])K([Leu-Cbz])K([Leu-Cbz])-OH; configuration not given here) , respond with its GI50.
> 25 µM (inactive)

Given COc1ccc(/C=C2\CN(C)CC3=C2OC(N)=C(C#N)C3c2ccc(OC)cc2)cc1 (stereo unspecified) , respond with its GI50.
30.5 µM (inactive)

Given O=C1Sc2cc3ccccc3cc2C(=O)Sc2ccc(Br)cc21 , respond with its GI50.
2.07 µM (inactive)

----------
- Tested on: A498
- testDetails: NCI tumour cell line growth inhibition, 48 h
Calls of active or inactive are those of the source. No stated cut-off is given here; in the data, active = GI50 up to about 1.1 µM and inactive = higher.
Some compounds, each annotated with its measured GI50.

{"compound": "C[C@]12CC[C@@H]3c4cc(OCC(F)(F)F)c(O)cc4CC[C@H]3[C@@H]1CC[C@@H]2O", "GI50": "7.66 µM (inactive)"}

Given CC1(C)N=[N+]([O-])C1(C)C , respond with its GI50.
> 100 µM (inactive)

Given O=C(Nc1c(O)[nH]c(=S)[nH]c1=O)c1ccccc1F , respond with its GI50.
> 100 µM (inactive)

Given C=CCCC1CCCCNC1=S (stereo not given) , respond with its GI50.
> 10 µM (inactive)

Given CCOC(=O)/C(C#N)=C/c1ccnc2ccccc12 , respond with its GI50.
> 100 µM (inactive)

Data credit: ChEMBL document CHEMBL1201862
